For each entry below, report its IC50 value.
# subject-of-test: Factor XIIa (Homo sapiens (Human))
# Sequence (P00748 373-615): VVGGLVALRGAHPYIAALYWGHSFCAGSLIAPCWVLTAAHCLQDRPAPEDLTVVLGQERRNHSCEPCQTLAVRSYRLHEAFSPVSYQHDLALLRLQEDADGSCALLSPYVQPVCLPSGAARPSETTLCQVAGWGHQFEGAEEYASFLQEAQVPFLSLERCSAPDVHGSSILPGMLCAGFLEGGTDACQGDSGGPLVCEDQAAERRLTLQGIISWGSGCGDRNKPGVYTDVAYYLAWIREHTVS
# assay-notes: Determination of enzyme selectivity, Factor XIIa
# Format: biochemical
# condition-notes: substrate at Km concentration

Recorded results for 3 compounds are shown here.
{"columns": ["compound", "measure", "result"],
 "data": [
  ["Cc1cnn(Cc2ccc(Cn3cc(C(=O)NCc4cnc5[nH]ccc5c4)nn3)cc2)c1 [Example 115]", "IC50", "> 10000 nM"],
  ["Cc1cnn(Cc2ccc(Cn3cc(C(=O)NCc4c(C)nc5[nH]ccc5c4C)cn3)cc2)c1 [Example 118]", "IC50", "> 40000 nM"],
  ["Cc1cnn(Cc2ccc(Cn3cc(C(=O)NCc4cc5cc[nH]c5nc4C)cn3)cc2)c1 [Example 22]", "IC50", "> 10000 nM"]
]}

Now for a further compound.
Measured IC50 of Cc1cnn(Cc2ccc(Cn3cc(C(=O)NCc4cccc5[nH]ccc45)c(C(F)(F)F)n3)cc2)c1 [Example 123] : > 10000 nM

----------
# subject-of-test: Human plasma kallikrein (Homo sapiens (Human))
# assay-notes: Determination of the IC50 for plasma kallikrein (fluorogenic substrate H-DPro-Phe-Arg-AFC)
# condition-notes: 37° C., read-out: IC50 (human PKaI)
measure: log10(IC50) (log10 of the value in nM)
Record value = log10 of IC50 given in nM.

{"columns": ["compound", "log10(IC50)"],
 "data": [
  ["Cc1cnn(Cc2nc(Cn3cc(C(=O)NCc4ccc5c(N)nccc5c4)c(C(F)(F)F)n3)cs2)c1 [Example 82]", 1.33],
  ["Cc1cnn(Cc2ccc(Cn3cc(C(=O)NCc4ccc5c(N)nccc5c4)c(CO)n3)cc2)c1 [Example 15]", 0.07],
  ["Cc1cnn(Cc2ccc(Cn3cc(C(=O)NCc4ccc5c(N)nccc5c4)c(-c4ccccc4)n3)cc2)c1 [Example 35]", 0.57],
  ["Nc1nccc2cc(CNC(=O)c3cn(Cc4ccc(N5CCC(F)(F)C5)nc4)nc3C(F)(F)F)ccc12 [Example 57]", 1.17],
  ["Nc1nccc2cc(CNC(=O)c3cn(Cc4ccc(N5CC[C@@H](CO)C5)nc4)nc3C(F)(F)F)ccc12 [Example 70]", 1.83]
]}

# per-item lookup of log10(IC50); items listed below
1. Cc1nc(C)c(N(C)Cc2ccc(Cn3cc(C(=O)NCc4cnc5[nH]ccc5c4)cn3)cc2)s1 [Example 105]
2. NC(=O)c1cnn(Cc2ccc(Cn3cc(C(=O)NCc4ccc5c(N)nccc5c4)c(C(F)(F)F)n3)cc2)c1 [Example 78]
3. C[C@@H]1CCN(c2cc(Cn3cc(C(=O)NCc4ccc5c(N)nccc5c4)c(C(F)(F)F)n3)ccn2)C1 [Example 67]
4. Nc1nccc2cc(CNC(=O)c3cn(Cc4ccnc(N5CCC(F)(F)C5)c4)nc3C(F)(F)F)ccc12 [Example 56]
5. Nc1nccc2cc(CNC(=O)c3cn(Cc4cnc(N5CCCC5)c(Cl)c4)nc3C3CC3)ccc12 [Example 97]
6. Nc1nccc2cc(CNC(=O)c3cn(Cc4ccc(N5CC[C@@H](F)C5)nc4)nc3C(F)(F)F)ccc12 [Example 61]

1. 4.23
2. 1.96
3. 2.03
4. 1.86
5. 1.27
6. 1.26

----------
# subject-of-test: UniProt P06870
# Sequence (P06870 25-262): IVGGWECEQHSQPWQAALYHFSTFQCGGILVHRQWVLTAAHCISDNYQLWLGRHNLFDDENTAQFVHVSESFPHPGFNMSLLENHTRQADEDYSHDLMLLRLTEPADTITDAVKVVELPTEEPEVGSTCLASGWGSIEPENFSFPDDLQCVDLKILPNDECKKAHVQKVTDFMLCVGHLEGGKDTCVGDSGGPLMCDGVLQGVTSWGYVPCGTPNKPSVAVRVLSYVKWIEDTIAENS
For each entry below, report its IC50 value.
One number for each entry, in µM.

{"columns": ["molecule", "subject-of-test", "measure", "units-label", "numeric-value"],
 "data": [
  ["Nc1nn(Cc2ccc(N3CCCC3)nc2)cc1C(=O)NCc1ccc2c(N)nccc2c1 [Example 99]", "UniProt P06870", "IC50", "µM", 3.46],
  ["CCOc1ccc(Cn2cc(C(=O)NCc3ccc4c(N)nccc4c3)c(-c3ccccc3)n2)cn1 [Example 26]", "UniProt P06870", "IC50", "µM", 4.73]
]}

# per-item lookup of IC50; items listed below
1. C[C@@H]1CCCN1c1ccc(Cn2cc(C(=O)NCc3ccc4c(N)nccc4c3)c(C(F)(F)F)n2)cn1 [Example 63]
2. Cc1cnn(Cc2ccc(Cn3cc(C(=O)NCc4ccc5[nH]ncc5c4)c(C(F)(F)F)n3)cc2)c1 [Example 111]

5.7
7.17

----------
# subject-of-test: Human plasma kallikrein (Homo sapiens (Human), UniProt P03952)
# Sequence (P03952 391-638): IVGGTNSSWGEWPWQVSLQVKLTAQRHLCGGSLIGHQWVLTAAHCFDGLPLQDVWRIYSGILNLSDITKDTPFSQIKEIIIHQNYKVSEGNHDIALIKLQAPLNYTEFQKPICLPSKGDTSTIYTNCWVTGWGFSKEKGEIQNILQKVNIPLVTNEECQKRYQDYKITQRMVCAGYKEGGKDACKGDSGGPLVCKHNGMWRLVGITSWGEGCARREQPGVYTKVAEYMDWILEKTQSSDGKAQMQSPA
# Sequence (P03952 20-390 partner): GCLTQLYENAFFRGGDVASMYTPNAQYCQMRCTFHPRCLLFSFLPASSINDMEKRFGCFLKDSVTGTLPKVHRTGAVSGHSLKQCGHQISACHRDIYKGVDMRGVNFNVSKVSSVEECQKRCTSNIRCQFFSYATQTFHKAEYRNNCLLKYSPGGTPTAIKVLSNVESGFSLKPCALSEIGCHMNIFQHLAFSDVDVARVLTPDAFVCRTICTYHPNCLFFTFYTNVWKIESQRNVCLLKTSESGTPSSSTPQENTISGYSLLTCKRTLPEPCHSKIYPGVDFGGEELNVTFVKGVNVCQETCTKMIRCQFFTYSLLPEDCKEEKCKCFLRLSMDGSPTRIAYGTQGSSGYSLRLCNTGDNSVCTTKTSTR
# assay-notes: Determination of the IC50 for plasma kallikrein (fluorogenic substrate H-DPro-Phe-Arg-AFC)
# condition-notes: 37° C., read-out: IC50 (human PKaI)
For each entry below, report its IC50 value.
One number for each entry, in nM.

Recorded results for 6 compounds are shown here.
{"columns": ["compound", "IC50 (nM)"],
 "data": [
  ["Nc1nccc2cc(CNC(=O)c3cnn(Cc4cccc(Oc5ccccc5)n4)c3)ccc12 [Example 47]", 2030],
  ["Nc1nccc2cc(CNC(=O)c3cnn(Cc4ccc(Oc5ccccn5)cc4)c3)ccc12 [Example 49]", 186],
  ["Cc1cnn(Cc2ccc(Cn3cc(C(=O)NCc4c(C)nc5[nH]ccc5c4C)c(C4CC4)n3)cc2)c1 [Example 122]", 101],
  ["Cc1cnn(Cc2ccc(Cn3cc(C(=O)NCc4ccc5c(N)nccc5c4)cn3)cc2)c1 [Example 31]", 2],
  ["Nc1nccc2cc(CNC(=O)c3cnn(Cc4ccc(COc5cccc(F)n5)cc4)c3)ccc12 [Example 50]", 203],
  ["Nc1nccc2cc(CNC(=O)c3cnn(Cc4cccc(Oc5ncccc5F)c4)c3)ccc12 [Example 48]", 820]
]}

# per-item lookup of IC50; items listed below
1. Cc1cnn(Cc2ccc(Cn3cc(C(=O)NCc4ccc5c(N)nccc5c4)c(C(C)C)n3)cc2)c1 [Example 13]
2. CCC(C)Oc1ccc(Cn2cc(C(=O)NCc3ccc4c(N)nccc4c3)c(C(F)(F)F)n2)cn1 (stereo not shown) [Example 72]

2.14
118

# per-item lookup of IC50; items listed below
1. Cc1cc(C(=O)NCc2ccc3c(N)nccc3c2)c(C)n1Cc1csc(-c2ccccc2)n1 [Example 1]
2. CCn1c(C(=O)NCc2ccc3c(N)nccc3c2)cc(C)c1Cc1ccc(N2CCCC2)nc1 [Example 30]
3. CCn1c(C(=O)NCc2ccc3c(N)nccc3c2)cc(C)c1Cc1csc(-c2ccccc2)n1 [Example 29]
4. C[C@H]1CCCN1c1ccc(Cn2cc(C(=O)NCc3ccc4c(N)nccc4c3)c(C(F)(F)F)n2)cn1 [Example 62]
5. Nc1nccc2cc(CNC(=O)c3cn(Cc4ccc(Oc5ccccc5)nc4)nc3C3CC3)ccc12 [Example 93]

1. 54.7
2. 1470
3. 620
4. 13.6
5. 75.1

# per-item lookup of IC50; items listed below
1. Cc1cc(C(=O)NCc2ccc3ccnc(N)c3c2)c(C)n1Cc1csc(-c2ccccc2)n1 [Example 2]
2. Nc1nccc2cc(CNC(=O)c3cnn(CCc4ccc5c(c4)OCCO5)c3)ccc12 [Example 45]
3. Nc1nccc2cc(CNC(=O)c3cn(Cc4ccc(OCC(F)(F)F)nc4)nc3C3CC3)ccc12 [Example 92]

[2110, 3060, 109]

----------
# assay-notes: Pharmacokinetics following a single oral dose in male Sprague-Dawley rats
# Type: in vivo
# condition-notes: rat, single po dose 4 mg/kg, plasma
measure: Cmax (ng/mL)
Answers are plain numbers, in ng/mL.

Measured Cmax of Nc1nccc2cc(CNC(=O)c3cn(Cc4ccc(N5CCCC5)nc4)nc3C(F)(F)F)ccc12 [Example 24] : 97

----------
For each entry below, report its IC50 value.
# subject-of-test: Factor XIIa (Homo sapiens (Human))
# assay-notes: Determination of enzyme selectivity, Factor XIIa
# Format: biochemical
# condition-notes: substrate at Km concentration

Recorded results for 3 compounds are shown here.
{"columns": ["compound", "IC50"],
 "data": [
  ["Cc1cnn(Cc2ccc(Cn3cc(C(=O)NCc4ccc5[nH]c(C)cc5c4)c(C(F)(F)F)n3)cc2)c1 [Example 110]", "> 10000 nM"],
  ["Cc1nc(C)c(N(C)Cc2ccc(Cn3cc(C(=O)NCc4ccc5c(N)nccc5c4)cn3)cc2)s1 [Example 46]", "> 40000 nM"],
  ["Nc1nccc2cc(CNC(=O)c3cn(Cc4ccc(N5CC[C@@H](F)C5)nc4)nc3C(F)(F)F)ccc12 [Example 61]", "> 10000 nM"]
]}

# per-item lookup of IC50; items listed below
1. Cc1cc(C(=O)NCc2ccc3c(N)nccc3c2)c(C)n1Cc1csc(-c2ccccc2)n1 [Example 1]
2. Cc1cnn(Cc2ccc(Cn3cc(C(=O)NCc4ccc5[nH]ncc5c4)c(C(F)(F)F)n3)cc2)c1 [Example 111]
3. Nc1nccc2cc(CNC(=O)c3cnn(Cc4ccnc(N5CCCC5)c4)c3C(F)(F)F)ccc12 [Example 51]
4. O=C(NCc1cnc2[nH]ccc2c1)c1cnn(Cc2cccc(Oc3ccccc3)c2)c1 [Example 108]
5. Cc1cnn(Cc2ccc(Cn3cc(C(=O)NCc4cnc5[nH]ccc5c4)cn3)cc2)c1 [Example 117]
6. Cc1cnn(Cc2ccc(Cn3cc(C(=O)NCc4cnc5[nH]ccc5c4)c(C4CC4)n3)cc2)c1 [Example 120]

1: > 10000 nM; 2: > 10000 nM; 3: > 40000 nM; 4: > 40000 nM; 5: > 10000 nM; 6: > 10000 nM

# per-item lookup of IC50; items listed below
1. C[C@H]1CCCN1c1ccc(Cn2cc(C(=O)NCc3ccc4c(N)nccc4c3)c(C(F)(F)F)n2)cn1 [Example 62]
2. COCc1nn(Cc2ccc(Cn3cc(C)cn3)cc2)cc1C(=O)NCc1ccc2c(N)nccc2c1 [Example 38]
3. Nc1nccc2cc(CNC(=O)c3cnn(CCc4ccc5c(c4)OCCO5)c3)ccc12 [Example 45]

["> 10000 nM", "> 10000 nM", "> 40000 nM"]
